// each record: one item and its Ki for UniProt:P22748
Sequence (P22748 19-284): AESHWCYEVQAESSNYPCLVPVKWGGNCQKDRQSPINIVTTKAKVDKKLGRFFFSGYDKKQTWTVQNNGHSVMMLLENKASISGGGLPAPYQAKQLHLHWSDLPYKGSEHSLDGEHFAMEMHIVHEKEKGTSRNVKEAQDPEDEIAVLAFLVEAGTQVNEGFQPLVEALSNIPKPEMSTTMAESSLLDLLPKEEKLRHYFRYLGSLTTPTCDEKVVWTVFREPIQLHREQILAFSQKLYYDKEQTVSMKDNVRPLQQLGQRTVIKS

COMPOUND | Ki (nM)
Cc1c(OCC(F)(F)F)ccnc1C[S+]([O-])c1nc2ccccc2n1C(=O)OCCCOc1ccc2oc(=O)ccc2c1 (centres unmarked) | 6.4
Cc1c(OCC(F)(F)F)ccnc1C[S+]([O-])c1nc2ccccc2n1C(=O)OCCOc1ccc2ccc(=O)oc2c1 (centres unmarked) | 10.3

====

// each record: one item and its Ki for CA II (Homo sapiens, UniProt P00918)
MEASUREMENT NAME: Ki

COMPOUND | SYSTEM UNDER TEST | MEASUREMENT NAME | MEASURED RESULT
Cc1c(OCC(F)(F)F)ccnc1C[S+]([O-])c1nc2ccccc2n1C(=O)OCCOc1ccc2oc(=O)ccc2c1 (centres unmarked) [Compound A1] | CA II (Homo sapiens, UniProt P00918) | Ki | > 10 µM
O=c1ccc2cc(OCCO)ccc2o1 [Compound G1A, 6-(2-hydroxyethoxy)-2H-chromen-2-one] | CA II (Homo sapiens, UniProt P00918) | Ki | > 10 µM
